# condition: Ebola virus entry assay, ratio channel
Activity calls are given as the source filed them.
Returns: one label drawn from Yes for active, No for inactive

compound | classification
COc1ccccc1N1CCN(CCCNc2cc(=O)n(C)c(=O)n2C)CC1 | No
CCOC(=O)OC(C)OC1=C(C(=O)Nc2ccccn2)N(C)S(=O)(=O)c2ccccc21 (stereo not drawn) | No
CCN(CC)CCOC(=O)C1(c2ccccc2)CCCC1 | Yes
COc1ccc2c(c1OC)C(=O)O[C@@H]2[C@H]1c2c(cc3c(c2OC)OCO3)CCN1C | No
O=C(OCc1ccccc1)c1ccc(O)cc1 | No

Per the assay record, what outcome was assigned to Cc1nnc2n1-c1sc(CCc3ccc(CC(C)C)cc3)cc1C(c1ccccc1Cl)=NC2C (stereo not drawn) ?
Yes

Another compound: "Cc1nc2ccccc2n1Cc1ccc(Cl)cc1"
No

# iterate: "OC(CCN1CCCCC1)(c1ccccc1)c1ccccc1"
Yes

Try "Cc1cc2nc3ccc(=[N+](C)C)cc-3sc2cc1N" next.
No

Same question for "CCC(=O)C(CCN(C)C)(c1ccccc1)c1ccccc1" please.
Yes

----------
# assay method text: qHTS of pediatric cancer cell lines to identify multiple opportunities for drug repurposing: Confirmatory screen for NB1643 cells (AID 1347109); further: nearly all actives have a fitted effect of over 45% in size
# condition: NB1643 neuroblastoma cell viability; series mostly up to 45.9 µM
Results filed as inconclusive are left out. Activity calls are given as the source filed them. Calls follow the shape of the dose curve; as a rule, active = well fitted cell-killing curve with a large enough effect; inconclusive = small, poorly fitted or top-dose-only effect, or effect the other way; inactive = no such curve, though single readings can be large or run the other way.
Assign a class; possible classes are active, inactive

Consider the following illustrative entries.
compound | classification
CN1[C@@H]2CC[C@H]1CC(OC(=O)c1cc(Cl)cc(Cl)c1)C2 (some centres not stated) | inactive
Cc1ccc([N+](=O)[O-])[c]2c1[O][Hg]2 | active
ClC1=C(Cl)C2(Cl)C(CBr)CC1(Cl)C2(Cl)Cl (configuration not stated) | inactive
CCCCCCCCCCCC[N+](C)(C)CCOc1ccccc1 | active
COc1ccc2c(C(=O)c3ccc(Cl)cc3)c(C)n(CC(=O)O)c2c1 | inactive
CC1Sc2c(C(=O)O)c(=O)c3cc(F)c(N4CCNCC4)cc3n21 (configuration not stated) | inactive

Consider the additional compound presented here.
What did the test return for "CCc1ccc(C2CCNCC2)cc1" ?
inactive

----------
# assay method text: Inducers of the Endoplasmic Reticulum Stress Response (ERSR) in human glioma: Validation (AID 504836); further: 0% is about no effect
# condition: human glioma cells, ER stress response reporter; series mostly up to 38.3 µM
Activity calls are given as the source filed them. Calls come from the whole dose curve; as a rule, active = well fitted curve in the direction sought with a large enough effect; inconclusive = small, poorly fitted or top-dose-only effect, or effect the other way, or another doubt; inactive = no such curve, though single readings can be large or run the other way.
measure: outcome

Solved cases below.
compound | endpoint result
Clc1ccccc1C(c1ccccc1)(c1ccccc1)n1ccnc1 | inactive
c1cc(CN2CCCCC2)cc(OCCCNc2nc3ccccc3s2)c1 | inactive
Cc1ccc(=O)n(-c2ccccc2)c1 | inactive
CCOC(=O)C1=C[C@]2(CC)CCCN3CCc4c(n1c1ccccc41)[C@@H]32 | inactive
CCOC(=O)C(C)(C)Oc1ccc(Cl)cc1 | inactive
O=C(O)c1cccnc1Nc1cccc(C(F)(F)F)c1 | inactive
OC(CN1CCC(Cc2ccc(F)cc2)CC1)c1ccc(Cl)cc1 (stereo not given) | inactive
C[N+](C)(C)CCCCCCCCCC[N+](C)(C)C | inactive
CN1CCN(C2Cc3ccccc3Sc3ccc(Cl)cc32)CC1 (stereo not given) | inactive
COc1ccc2c(c1OC)C(=O)O[C@@H]2[C@H]1c2c(cc3c(c2OC)OCO3)CCN1C | inactive

What value of measured outcome is listed for "CN(C)CCN(Cc1cccs1)c1ccccn1" ?
inactive

Same again, this time with CCn1ccnc1CC1COc2ccccc2O1 (stereo not given)
inactive

Also "CCCCNc1ccc(C(=O)OCCN(C)C)cc1" ?
inactive

Continue with "COc1ccccc1N1CCN(CCCNc2cc(=O)n(C)c(=O)n2C)CC1"
inactive

Similarly, NC1=NCC2c3ccccc3Cc3ccccc3N12 (stereo not given) ?
inactive

And then NS(=O)(=O)c1cc2c(cc1Cl)NC(C1CC3C=CC1C3)NS2(=O)=O (stereo not given) , what is it?
inactive

Lookup CC(C)(C)c1ccc(C(O)CCCN2CCC(C(O)(c3ccccc3)c3ccccc3)CC2)cc1 (stereo not given)
inactive

And the next one, "CC1=C(CC(=O)O)c2cc(F)ccc2/C1=C\c1ccc(S(C)(=O)=O)cc1" ?
inactive

Then this compound: "CCN(CC)CC(=O)Nc1c(C)cccc1C"
inactive

Cool, now "COc1nc(C)nc(Cl)c1NC1=NCCN1"
inactive

Param item: "CCNC(=O)N1CCN(CCCC(c2ccc(F)cc2)c2ccc(F)cc2)CC1"
inactive

----------
# assay method text: Primary qHTS for Huh7 cytotoxicity: counterscreen for inhibitors of MERS-S pseudotyped particle cell entry (AID 1479147)
# condition: cell viability read-out; series mostly up to 57.1 µM
Inconclusive results are not listed. Activity calls are given as the source filed them. Calls come from the whole dose curve.
measure: outcome

Consider the reported outcome for these molecules:
molecule | measure | endpoint result
Oc1ccc(Cl)cc1Cc1cc(Cl)ccc1O | outcome | inactive
CCOC(=O)C1(c2ccccc2)CCN(CCc2ccc(N)cc2)CC1 | outcome | inactive
CCOC(=O)c1ccc(NC(=O)CN2CCCCC2)cc1 | outcome | inactive
COc1nc(C)nc(Cl)c1NC1=NCCN1 | outcome | inactive
CCCC[N+]1(C)[C@@H]2CC(OC(=O)[C@H](CO)c3ccccc3)C[C@H]1[C@@H]1O[C@@H]12 (stereo not given in full) | outcome | inactive
C[N+]1(CC2COC(c3ccccc3)(C3CCCCC3)O2)CCCCC1 (stereo not given) | outcome | inactive
C[C@H](N)[C@H](O)c1ccc(O)c(O)c1 | outcome | inactive
CC(C)(C)CC(=O)OCC(=O)[C@@]1(O)CC[C@H]2[C@@H]3CCC4=CC(=O)C=C[C@]4(C)[C@H]3[C@@H](O)C[C@@]21C | outcome | inactive
CC1(C)O[C@@H]2C[C@H]3[C@@H]4C[C@H](F)C5=CC(=O)CC[C@]5(C)[C@H]4[C@@H](O)C[C@]3(C)[C@]2(C(=O)CO)O1 | outcome | inactive

Now for another entry.
Consider the molecule CCCCN(CCCC)CCC(O)c1cc2c(Cl)cc(Cl)cc2c2cc(C(F)(F)F)ccc12 (stereo not given) and give its measured outcome.
inactive

----------
# assay method text: Cell Viability - Mesenchymal (AID 546);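 further: cells exposed to compound for 40 hours before reading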
# condition: mesenchymal cells viability, qHTS
Inconclusive results are not listed. The source made the active and inactive calls. The call rests on the fitted dose curve; in most records, active means well fitted cell-killing curve with a large enough effect; inconclusive means small, poorly fitted or top-dose-only effect; inactive means flat fitted curve, though single readings scatter.
Select the matching outcome among YES = active, NO = inactive

The following compounds have reported results that may help.
query smiles | classification
COP(=O)(OC)OC=C(Cl)Cl | NO
O=C(CCl)c1ccc(Cl)cc1Cl | YES

Short answer needed: outcome of this test for "Oc1c(Br)cc(Br)cc1Br" ?
NO

Thanks! And "CNC(=O)Oc1cccc2ccccc12" ?
NO

----------
# Test system: SC27B
# assay method text: qHTS profiling for inhibitors of Plasmodium falciparum proliferation (AID 504749); further: nearly all actives have a fitted effect of over 60% in size
# condition: P. falciparum in erythrocytes, SYBR Green DNA, 72 h; series mostly up to 28.7 µM
Records with an inconclusive call do not appear. Active and inactive are the calls of the source. Calls follow the shape of the dose curve; as a rule, active = well fitted inhibition curve with a large enough effect; inconclusive = small, poorly fitted or top-dose-only effect; inactive = flat fitted curve, though single readings scatter.
Respond with a class label; see active, inactive

compound | classification
CN(C)C(=S)SSC(=S)N(C)C | active
OC(O)C(Cl)(Cl)Cl | inactive
CC(Cc1ccccc1)NCc1ccccc1Cl (centres undefined) | inactive
c1ccc2nc(N3CCNCC3)ccc2c1 | inactive
O=C(O)c1nn(Cc2ccc(Cl)cc2Cl)c2ccccc12 | inactive
CCNc1nc(Cl)nc(NCC)n1 | inactive
C[N+](C)(C)CCOC(=O)C(O)(c1ccccc1)c1ccccc1 | inactive
CC(C)(C)OC(=O)c1ncn2c1[C@@H]1CCCN1C(=O)c1c(Br)cccc1-2 | inactive

Now look at this one.
Fill in: this test's call for "C[N+]1(CCC(C(N)=O)(c2ccccc2)c2ccccc2)CCCCC1" is ___
inactive

----------
# target or system: Nucleoprotein (Lymphocytic choriomeningitis virus (strain Armstrong)) (UniProt P09992)
# Sequence (P09992 whole entry, looked up): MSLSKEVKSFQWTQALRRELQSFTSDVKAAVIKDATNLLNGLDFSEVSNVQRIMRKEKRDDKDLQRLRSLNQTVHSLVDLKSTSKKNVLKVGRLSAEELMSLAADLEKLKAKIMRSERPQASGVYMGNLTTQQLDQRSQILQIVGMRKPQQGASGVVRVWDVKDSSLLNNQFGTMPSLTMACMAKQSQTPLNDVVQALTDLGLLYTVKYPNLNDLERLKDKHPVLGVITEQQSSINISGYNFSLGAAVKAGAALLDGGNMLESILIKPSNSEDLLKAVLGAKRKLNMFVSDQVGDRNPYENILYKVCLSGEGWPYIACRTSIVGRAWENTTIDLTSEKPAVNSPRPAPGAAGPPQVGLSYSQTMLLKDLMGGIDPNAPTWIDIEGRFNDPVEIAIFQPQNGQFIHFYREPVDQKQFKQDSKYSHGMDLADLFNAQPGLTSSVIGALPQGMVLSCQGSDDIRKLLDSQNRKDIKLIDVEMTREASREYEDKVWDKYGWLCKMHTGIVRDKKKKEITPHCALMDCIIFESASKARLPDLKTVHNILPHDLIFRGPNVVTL
# assay method text: qHTS for Inhibitors of the Functional Ribonucleoprotein Complex (vRNP) of Lymphocytic Choriomeningitis Arenaviruses (LCMV): LCMV Primary Screen - GLuc reporter signal (AID 1347086); further: nearly all actives have a fitted effect of over 70% in size
# condition: LCMV minigenome vRNP cell assay, Gaussia luciferase reporter; series mostly up to 57.5 µM
Results filed as inconclusive are left out. Active and inactive are the calls of the source. Calls follow the shape of the full dose curve.
# valid calls are yes (1) = active, no (0) = inactive; nothing else

Reference set (3 entries):
compound | classification
CCCOc1ccccc1-c1nc2n[nH]nc2c(=O)[nH]1 | no (0)
CC(C)n1nc(-c2cc3cc(O)ccc3[nH]2)c2c(N)ncnc21 | yes (1)
NC(=O)CCCCC1CCSS1 (stereo not given) | no (0)

State the result this test recorded for "CC(=O)Oc1ccc2c(c1)CC[C@@H]1[C@@H]2CC[C@]2(C)[C@@H](O)CC[C@@H]12" .
no (0)

What do you get for "CCOC(=O)[C@H](CCc1ccccc1)N[C@H]1CS[C@H](c2cccs2)CN(CC(=O)O)C1=O" ?
no (0)

Please answer likewise for "CC(C)(C)c1nnc(NS(=O)(=O)c2ccc(N)cc2)s1"
no (0)

And what about the compound "COc1ccc(-n2nc(CCC(=O)N(C)O)cc2-c2ccc(Cl)cc2)cc1" ?
no (0)

What about this compound? "CCCn1cnc2c1c(=O)n(CCCCC(C)=O)c(=O)n2C"
no (0)

Try this compound too: "C[C@H](CCC(=O)O)[C@H]1CC[C@H]2[C@@H]3C(=O)C[C@@H]4CC(=O)CC[C@]4(C)[C@H]3CC(=O)[C@]12C"
no (0)

Quick one: "O=C(O)[C@H](O)[C@@H](O)[C@H](O[C@@H]1O[C@H](CO)[C@H](O)[C@H](O)[C@H]1O)[C@H](O)CO"
no (0)

These entries and their values trace back to PubChem BioAssay (NCATS).
